From: patent US10028942B2

# target.system: DLK (Homo sapiens, UniProt Q12852)
# Sequence (Q12852 1-520): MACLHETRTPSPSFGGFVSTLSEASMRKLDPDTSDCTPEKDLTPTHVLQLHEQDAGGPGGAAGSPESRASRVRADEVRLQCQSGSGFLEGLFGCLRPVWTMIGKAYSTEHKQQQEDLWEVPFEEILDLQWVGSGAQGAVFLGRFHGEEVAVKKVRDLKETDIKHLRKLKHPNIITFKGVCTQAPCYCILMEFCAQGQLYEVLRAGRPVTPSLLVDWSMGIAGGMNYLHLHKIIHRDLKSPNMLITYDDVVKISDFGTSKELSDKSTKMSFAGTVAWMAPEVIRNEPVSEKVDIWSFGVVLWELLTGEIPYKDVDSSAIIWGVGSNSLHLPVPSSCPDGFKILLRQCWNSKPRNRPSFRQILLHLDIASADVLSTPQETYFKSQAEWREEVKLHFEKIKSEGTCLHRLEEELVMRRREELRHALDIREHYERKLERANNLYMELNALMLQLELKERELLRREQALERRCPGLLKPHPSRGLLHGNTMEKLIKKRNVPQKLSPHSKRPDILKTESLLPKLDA
# assay.conditions: read-out: DLK (Ki) μM; TR-FRET; 5 nM GST-tagged DLK (catalytic domain aa 1-520), 40 nM HIS-MKK4 K131M substrate, 30 μM ATP, 60 minutes
readout.name: Ki (µM)

Known Ki results, listed for orientation:
INSERT INTO assay_data (compound, observed_measurement) VALUES
  ('CC(C)n1nc(-c2cnc(N)c(OC(F)F)c2)cc1[C@H]1[C@@H]2CN(C3COC3)C[C@@H]21 [Compound 141]', 0.008),
  ('CC(C)n1nc(-c2cnc(N)c(C(F)(F)F)c2)cc1C(C)(C)O [Compound 2]', 0.11);

A. CC(C)n1nc(-c2cnc(N)c(OC(F)F)c2)cc1[C@H]1[C@@H]2CN(CC(F)(F)F)C[C@@H]21 [Compound 110]
B. CN1CCC(c2cc(-c3cnc(N)c(Cl)c3)nn2C2CC(F)(F)C2)CC1=O (stereo not drawn) [Compound 43]
C. COCCN1C[C@@H]2[C@H](C1)[C@H]2c1cc(-c2cnc(N)c(Cl)c2)nn1CC1CC1(F)F (stereo partly drawn) [Compound 121]
input: Returns the items ordered by Ki, from maximum to minimum. Submit the labels in the order that the ranking request calls for.
output: C, B, A
(C: 0.09 µM, B: 0.06 µM, A: 0.0045 µM)

A. Cc1c[nH]c2ncc(-c3cc(C4CCOCC4)n(C4CC(F)(F)C4)n3)cc12 [Compound 35]
B. CC(C)n1nc(-c2cnc(N)c(C(F)F)c2)cc1[C@H]1[C@@H]2CN(C3COC3)C[C@@H]21 [Compound 158]
input: Returns: the label, A or B , whose recorded Ki is the lower number. // respond with label for picked entry
output: B
(B: 0.035 µM, A: 0.1 µM)

1. Cc1c[nH]c2ncc(-c3cc(C4CCOC4)n(C4CC(F)(F)C4)n3)cc12 (stereo not drawn) [Compound 19]
2. Nc1ncc(-c2cc([C@H]3[C@@H]4CN(C5COC5)C[C@@H]43)n(C3CCCC3)n2)cc1OC(F)(F)F [Compound 166]
3. CC(C)c1cc(-c2cnc3[nH]cc(C(F)(F)F)c3c2)nn1C1CN(C2COC2)C1 [Compound 1]
4. CC(C)n1nc(-c2cnc(N)c(C(F)(F)F)c2)cc1C(C)(C)C#N [Compound 4]
input: Returns the items ordered by Ki, from maximum to minimum. Submit the labels in the order that the ranking request calls for.
output: 4, 1, 3, 2

1. N#Cc1cc(-c2cc([C@H]3[C@@H]4CN(CC(F)(F)F)C[C@@H]43)n(CC3CC3)n2)cnc1N [Compound 113]
2. Nc1ncc(-c2cc([C@H]3[C@@H]4CN(C5COC5)C[C@@H]43)n(C3CCCC3)n2)cc1C(F)(F)F [Compound 135]
input: Returns: the label, 1 or 2 , whose recorded Ki is the lower number. // respond with label for picked entry
output: 2

A. CC(C)(C)n1nc(-c2cnc(N)c(C(F)(F)F)c2)cc1[C@H]1[C@@H]2CN(C3COC3)C[C@@H]21 [Compound 167]
B. CS(=O)(=O)c1cc(-c2cc([C@H]3[C@@H]4CN(C5COC5)C[C@@H]43)n(C3CCCC3)n2)cnc1N [Compound 155]
input: Returns: the label, A or B , whose recorded Ki is the lower number. // respond with label for picked entry
output: A

I. Nc1ncc(-c2cc([C@H]3[C@@H]4CN(C5COC5)C[C@@H]43)n(CC3CC3)n2)cc1C(F)F [Compound 169]
II. CC(C)n1nc(-c2cnc(N)c(C(F)(F)F)c2)cc1C1CCN(C2COC2)CC1 [Compound 76]
input: Returns: the label, I or II , whose recorded Ki is the lower number. // respond with label for picked entry
output: I

P. CC(C)n1nc(-c2cnc(N)c(C#N)c2)cc1C1CCN(C2COC2)CC1 [Compound 92]
Q. Nc1ncc(-c2cc([C@H]3[C@@H]4CNC[C@@H]43)n(CC(F)(F)F)n2)cc1C(F)(F)F [Compound 107]
R. CC(C)n1nc(-c2cnc3[nH]cc(C(F)(F)F)c3c2)cc1C1CCN(C)CC1 [Compound 40]
S. Nc1ncc(-c2cc([C@H]3[C@@H]4CN(C5COC5)C[C@@H]43)n(C3CC3)n2)cc1C(F)(F)F [Compound 168]
T. CC(C)n1nc(-c2cnc(N)c(C3CC3)c2)cc1[C@H]1[C@@H]2CN(C3COC3)C[C@@H]21 [Compound 142]
input: Order by Ki, ascending. Submit the labels in the order that the ranking request calls for.
output: R, Q, S, T, P
(R: 0.00017 µM, Q: 0.0024 µM, S: 0.0047 µM, T: 0.022 µM, P: 0.94 µM)

1. Nc1ncc(-c2cc([C@H]3[C@@H]4CN(C5COC5)C[C@@H]43)n(CC3CCC3)n2)cc1C(F)(F)F [Compound 160]
2. Nc1ncc(-c2cc([C@H]3[C@@H]4CN(C5COC5)C[C@@H]43)n(C3CCC3)n2)cc1OC(F)(F)F [Compound 163]
input: Returns: the label, 1 or 2 , whose recorded Ki is the lower number. // respond with label for picked entry
output: 1
